Attribute: sandwich binding signal
Target: T1, recombinant soluble human TREM2 protein (human TREM2 ECD-FlagHis) (human, UniProt Q9NZC2 19-174)
T1 sequence: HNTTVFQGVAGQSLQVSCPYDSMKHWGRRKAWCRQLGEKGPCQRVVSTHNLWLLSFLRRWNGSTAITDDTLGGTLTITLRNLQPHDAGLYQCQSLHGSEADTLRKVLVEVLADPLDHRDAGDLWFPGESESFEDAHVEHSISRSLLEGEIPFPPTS
Assay: Octet BLI binning; competitor: load Ab 10E3
Lab note: write the figure by itself, no unit.

Past entries and their recorded results:
| binder | sandwich binding signal |
| --- | --- |
| 10E3 (antibody, human IgG2, V domains shown, human IgG2 from hybridoma) VH: EVQLVQSGAEVKKPGESLMISCKGSGYSFTNYWIGWVRQMPGKGLEWMGIIYPGDSDTRYSPSFQGQVTISADKSISTAYLQWSSLKASDTAMYFCARRRQGIWGDALDIWGQGTLVTVSS VL: EIVMTQSPATLSVSPGERATLSCRASQSVSSNLAWFQQKPGQAPRLLIYGASTRATGIPARFSVSGSGTEFTLTISSLQSEDFAFYYCLQDNNWPPTFGPGTKVDIK | -0.024 |
| 13E7 (antibody, human IgG2, V domains shown, human IgG2 from hybridoma) VH: EVQLVQSGAEVKKPGESLMISCKGSGYSFTSYWIGWVRQMPGKGLEWMGIIYPGDSDTRYSPSFQGQVTISADKSISTAYLQWSSLKASDTAMYFCARRRQGIWGDALDFWGQGTLVTVSS VL: EIVMTQSPATLSVSPGERATLSCRASQSVSSNLAWFQQKPGQAPRLLIYGASTRATGIPARFSVSGSGTEFTLTISSLQSEDFAVYYCLQDNNWPPTFGPGTKVDIK | -0.019 |

Now turn to the next binder.
Query :: What measured sandwich binding signal goes with 4G10 (antibody, human IgG2, V domains shown, human IgG2 from hybridoma) VH: EVQLVQSGAEVKKPGESLKISCKGSGYSFPSYWIAWVRQMPGKGLEWMGIIYPGDSDTRYSPSFQGQVTISADKSISTAFLKWSSLKASDTAMYFCARQGIEVTGTGGLDVWGQGTTVTVSS VL: DIQMTQSPSSLSASVGDRVTITCRASQGIRNDLGWYQQKPGNAPKRLIYAASSLPSGVPSRFSGSGSGPEFTLTISSLQPEDFATYYCLQHNSYPWTFGQGTKVEIT ?
Result :: -0.019

Data provenance is patent US20220204611A1.
